Answer each item with its documented IC50.
Test system: Aβ40 in conditioned medium of cells stably expressing Amyloid Precursor Protein (APP)
measurementProtocol: In vitro BACE cell-based assay (Aβ40 in conditioned medium, sandwich ELISA)
setupConditions: Homo sapiens, HEK293, average IC50; read-out: HEK cell assay
The answer should read as a number with its unit following.

Kindly note the recorded IC50 for NC1=N[C@@]2(CS1)c1cc(-c3cnccc3F)ccc1Oc1ncc(-c3cccnc3)cc12 , which is 44 nM

Per the record, NC1=N[C@@]2(CS1)c1cc(-c3cccnc3F)ccc1Oc1c(F)cc(N3CCC(F)(F)CC3)cc12 has IC50 of 14 nM

IC50 measured on NC1=N[C@@]2(CO1)c1cc(-c3ccc(F)nc3)ccc1Oc1c(F)cc(OCC3CCOCC3)cc12 = 30.4 nM

Per the records, this molecule ( CC#Cc1cncc(-c2ccc3c(c2)[C@@]2(CSC(N)=N2)c2cc(-c4ncccn4)cnc2O3)c1 ) has IC50 equal to 9 nM

Reported IC50 ( Cc1ccc(-c2cc(F)c3c(c2)[C@]2(COC(N)=N2)c2cc(-c4cccnc4F)ccc2O3)nn1 ) = 4 nM

// sample CC#Cc1cncc(-c2cnc3c(c2)[C@]2(COC(N)=N2)c2cc(-c4cccnc4F)ccc2O3)c1 , its IC50 was 3510 nM

For Cc1ccc(-c2cc3c(cn2)Oc2ccc(-c4cncc(Cl)c4)cc2[C@@]32COC(N)=N2)cn1 the molecule record lists IC50 as 7.1 nM

###

targetOrSystem: Beta Secretase enzyme (BACE) (Homo sapiens)
Sequence (P56817 46-501, species assumed): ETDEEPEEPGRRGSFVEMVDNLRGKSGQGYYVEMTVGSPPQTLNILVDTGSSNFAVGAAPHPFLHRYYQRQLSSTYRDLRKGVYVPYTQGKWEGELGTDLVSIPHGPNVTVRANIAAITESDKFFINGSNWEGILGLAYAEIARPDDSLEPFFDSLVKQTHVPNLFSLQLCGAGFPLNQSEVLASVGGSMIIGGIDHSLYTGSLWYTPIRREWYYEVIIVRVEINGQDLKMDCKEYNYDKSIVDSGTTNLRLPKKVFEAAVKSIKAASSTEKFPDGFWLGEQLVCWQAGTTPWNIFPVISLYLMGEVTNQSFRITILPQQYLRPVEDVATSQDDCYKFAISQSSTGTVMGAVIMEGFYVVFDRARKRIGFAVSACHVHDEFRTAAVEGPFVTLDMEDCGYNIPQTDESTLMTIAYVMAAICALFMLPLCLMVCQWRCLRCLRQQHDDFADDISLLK
measurementProtocol: In vitro enzymatic BACE FRET (fluorescence resonance energy transfer) assay
Type: biochemical
setupConditions: average IC50, enzyme assay; read-out: BACE 1 FRET assay
Protocol: In Vitro Enzymatic Bace Fret (Fluorescence Resonance Energy Transfer) Assay (Enzyme Assay Data in the Example Table I) The assay buffer used in this screen is 0.05 M acetate, pH 4.2, 10% DMSO final, 100 uM genapol (which is a nonionic detergent, below its Critical Micelle Concentration). […] The FRET assay is terminated with by addition of Tris buffer, which raises the pH to neutrality, and the fluorescence is determined. […]
Consider the following compounds; for each one, report its pIC50.
In simple prose, pIC50 is minus the logarithm base ten of a concentration in moles per litre.

Form field, pIC50 with Beta Secretase enzyme (BACE) (Homo sapiens), item NC1=N[C@@]2(CO1)c1cc(-c3cccnc3)ccc1Oc1cnc(N3CCC(F)(F)C3)cc12 : 8.96

The compound CC1(C)CC(c2cc3c(cn2)Oc2ccc(-c4cncnc4)cc2[C@@]32COC(N)=N2)=CCO1 , when measured on Beta Secretase enzyme (BACE) (Homo sapiens), yielded pIC50 of 8.80

Given the compound NC1=N[C@@]2(CO1)c1cc(-c3cccnc3F)ccc1Oc1cnc(/C=C/C3CC3)cc12 and test system Beta Secretase enzyme (BACE) (Homo sapiens), the measured pIC50 is 8.36

Bench note, Beta Secretase enzyme (BACE) (Homo sapiens): entry N#Cc1cccc(-c2ccc3c(c2)[C@@]2(COC(N)=N2)c2cc(C4=CCOCC4)nc(F)c2O3)c1 , its pIC50 = 9.40

Form: item CC1(C)CC(c2cc(F)c3c(c2)[C@]2(COC(N)=N2)c2cc(-c4cccnc4F)ccc2O3)=CC(=O)O1 ; test system Beta Secretase enzyme (BACE) (Homo sapiens); pIC50: 9.10

// compound CC(C)(F)C#Cc1cnc2c(c1)[C@]1(COC(N)=N1)c1cc(-c3cncnc3)c(F)cc1O2 , assay Beta Secretase enzyme (BACE) (Homo sapiens), pIC50 value: 8.42

Item NC1=N[C@]2(CO1)c1cc(-c3ccnc(F)c3)ccc1Oc1cnc(-c3cncnc3)cc12 ; assay system Beta Secretase enzyme (BACE) (Homo sapiens); pIC50 reported as 7.20

###

Tested on: Aβ40 in conditioned medium of cells stably expressing Amyloid Precursor Protein (APP)
measurementProtocol: In vitro BACE cell-based assay (Aβ40 in conditioned medium, sandwich ELISA)
setupConditions: Homo sapiens, HEK293, average IC50; read-out: HEK cell assay
For each record, check the reported IC50: if it is below 100 nM write y, else write n.

Strictly below 100 nM in IC50? CC#Cc1cncc(-c2cnc3c(c2)[C@]2(COC(N)=N2)c2cc(OC)ccc2O3)c1
n

Take the molecule NC1=N[C@@]2(CS1)c1cc(-c3cccnc3)ccc1Oc1c2cc(-c2ccnc(F)c2)nc1F and say whether its IC50 is less than 100 nM.
y

IC50 under 100 nM? Item: Cc1cncc(-c2ccc3c(c2)[C@@]2(COC(N)=N2)c2cc(-c4ccnc(C#N)c4)ncc2O3)c1
n

Consider the molecule Cc1ccnn1-c1cnc2c(c1)[C@]1(COC(N)=N1)c1cc(-c3cccnc3F)ccc1O2 . Is its IC50 strictly less than 100 nM?
n

Is 100 nM strictly greater than the molecule's reported IC50? molecule: NC1=N[C@@]2(CO1)c1cc(-c3cccnc3F)ccc1Oc1c(F)cc(C3=C(Cl)COCC3)cc12
y

Does this molecule meet the criterion IC50 < 100 nM? CC1(C#Cc2cnc3c(c2)[C@]2(COC(N)=N2)c2cc(OCc4ccccc4)ccc2O3)COC1
n

Regarding CC1(C#Cc2cc3c(nc2F)Oc2ccc(-c4cccnc4F)cc2C32COC(N)=N2)COC1 (stereo not drawn) , kindly confirm whether its IC50 is beneath 100 nM.
y

Hello, is IC50 of the following molecule strictly smaller than 100 nM? NC1=N[C@@]2(CO1)c1cc(-c3cc(Cl)ccc3F)ccc1Oc1ncc(C3=CCCOC3)cc12
y

Is IC50 strictly under 100 nM for the entry CC#Cc1cncc(-c2ccc3c(c2)[C@@]2(COC(N)=N2)c2cc(Cl)nc(OC)c2O3)c1 ?
n

Please state whether IC50 is below 100 nM for CC(C)(C)C#Cc1ccc2c(c1)[C@@]1(COC(N)=N1)c1cc(-c3ccnc(F)c3)ncc1O2
n

IC50 under 100 nM? Item: CC(C)(C#N)COc1cc2c(c(F)c1F)Oc1ccc(-c3cccnc3)cc1[C@@]21COC(N)=N1
y

In the record for NC1=N[C@]2(CO1)c1cc(-c3cccnc3F)ccc1Oc1c2cc(C2=CCOCC2)c(F)c1F , is IC50 less than 100 nM?
n

A record lists NC1=N[C@@]2(CO1)c1cc(-c3cccnc3F)ccc1Oc1c(F)cc(N3CC[C@H](F)C3)cc12 . Is its IC50 below 100 nM?
y

Is 100 nM strictly greater than the molecule's reported IC50? molecule: NC1=N[C@@]2(CO1)c1cc(-c3cccnc3)ncc1Oc1c(F)cc(C3=CCOCC3)cc12
y

###

Could you please report measured log10(IC50) for the items listed next?
System: Aβ40 in conditioned medium of cells stably expressing Amyloid Precursor Protein (APP)
measurementProtocol: In vitro BACE cell-based assay (Aβ40 in conditioned medium, sandwich ELISA)
setupConditions: Homo sapiens, HEK293, average IC50; read-out: HEK cell assay
Please note: log10 values; quantity IC50; unit nM.

Looking up NC1=N[C@@]2(CO1)c1cc(-c3cccc(C(F)(F)F)c3)ccc1Oc1cnc(C3=CCOCC3)cc12 , I found its log10(IC50) recorded as 1.91

Noted for CC(C)(C)/C=C/c1cc2c(cn1)Oc1ccc(-c3cncc(F)c3)cc1[C@@]21COC(N)=N1 : its log10(IC50) reads 1.17

get_value(item= CC1(C)CC(c2cnc3c(c2)[C@@]2(COC(N)=N2)c2c(ccc(-c4cncnc4)c2F)O3)=CCO1 , readout=log10(IC50)) returns 3.11

response.value for NC1=N[C@@]2(CS1)c1cc(-c3cccnc3F)ccc1Oc1c(F)cc(N3CCC(F)(F)C3)cc12 (field: log10(IC50)) = 0.95

Notebook: CC(C)(C#N)COc1cc(F)c2c(c1)[C@]1(COC(N)=N1)c1cc(-c3cncc(C#N)c3)ccc1O2 , log10(IC50) read as 0.67

Recorded result, Cc1cccc(Oc2ccc3c(c2)[C@@]2(COC(N)=N2)c2cc(N4CCOCC4)cc(F)c2O3)n1 , log10(IC50): 2.84

Measured log10(IC50) of CC1(C#Cc2cnc3c(c2)[C@]2(CSC(N)=N2)c2cc(-c4cnccc4F)ccc2O3)COC1 : 2.11

Recorded result, COc1cccc(Nc2ccc3c(c2)[C@@]2(COC(N)=N2)c2cc(C4=CCOCC4)cc(F)c2O3)c1 , log10(IC50): 2.83

Looking up COc1ncc(-c2cc(F)c3c(c2)[C@]2(COC(N)=N2)c2cc(-c4cncc(F)c4)ccc2O3)cn1 , I found its log10(IC50) recorded as 1.92

# molecule Cc1ccc(-c2ccc3c(c2)[C@@]2(COC(N)=N2)c2cc(C4=CCOCC4)ncc2O3)c(F)n1 ; its log10(IC50) = 2.51

Record summary for CC1(C)CN(c2cc(F)c3c(c2)[C@]2(COC(N)=N2)c2cc(-c4cncc(F)c4)ccc2O3)CCO1 : reported log10(IC50) = 0.91

// recorded log10(IC50) for Cc1ncccc1-c1ccc2c(c1)[C@@]1(COC(N)=N1)c1cc(C3=CCOCC3)ncc1O2 : 1.66

Record CC1(C)C[C@@H](c2cc3c(cn2)Oc2ccc(-c4cncc(F)c4)cc2[C@@]32COC(N)=N2)CCO1 , field log10(IC50): 2.00

In plain terms, COc1nc(C2CCCOC2)cc2c1Oc1ccc(-c3cccnc3)cc1[C@@]21COC(N)=N1 (some centres unmarked) has a documented log10(IC50) of 1.85

# molecule CC(C)(O)C#Cc1cncc(-c2ccc3c(c2)[C@@]2(COC(N)=N2)c2cc(-c4ccnc(F)c4)ncc2O3)c1 ; its log10(IC50) = 3.17

Sure, the documented log10(IC50) for Cn1cc(-c2cncc(-c3ccc4c(c3)[C@@]3(COC(N)=N3)c3cc(-c5cnn(C)c5)ncc3O4)c2)cn1 is 1.96

Form: molecule = CC1(C)C[C@@H](c2cc3c(cn2)Oc2ccc(-c4cccnc4F)cc2[C@@]32COC(N)=N2)CCO1 ; log10(IC50) = 1.42

# molecule CC1(C#Cc2cc3c(cc2OC(F)(F)F)Oc2ccc(-c4cccnc4F)cc2[C@@]32COC(N)=N2)COC1 ; its log10(IC50) = 3.45

Form field log10(IC50), entry CC#Cc1cncc(-c2ccc3c(c2)[C@@]2(COC(N)=N2)c2cc(C4=CCOCC4)nc(OC)c2O3)c1 : 0.85

Cc1cc(-c2ccc3c(c2)[C@@]2(COC(N)=N2)c2cc(-c4ccncc4)ncc2O3)cnc1F yielded log10(IC50) of 1.78

Just so you know, measured log10(IC50) for CCC(C)CSc1cnc2c(c1)[C@]1(COC(N)=N1)c1cc(-c3cccnc3)ccc1O2 (some centres unmarked) came out at 2.48

// field: log10(IC50); key: NC1=N[C@@]2(CO1)c1cc(-c3cncnc3)c(F)cc1Oc1c(F)cc(C3=CCCOC3)cc12 ; value = 0.90

The molecule listed as Cc1ccnc(F)c1-c1ccc2c(c1)[C@@]1(COC(N)=N1)c1cc(-c3ccnc(F)c3)ncc1O2 has a reported log10(IC50) of 1.35

Entry NC1=N[C@@]2(CS1)c1cc(-c3cccnc3F)ccc1Oc1c2cc(C2=CCCCO2)nc1F — recorded log10(IC50) = 1.04

Form field log10(IC50), entry NC1=N[C@@]2(CO1)c1cc(-c3cnccc3F)ccc1Oc1c(F)cc(C3=CCCOC3)cc12 : 1.08

Lab book: log10(IC50) of CC1(C#Cc2cnc3c(c2)[C@]2(COC(N)=N2)c2cc(-c4cncc(C(F)(F)F)c4)ccc2O3)COC1 noted as 1.06

CC1(C#Cc2ccc3c(c2)[C@@]2(COC(N)=N2)c2cc(N4CCC(F)(F)C4)ncc2O3)COC1 yielded log10(IC50) of 2.09

Reported log10(IC50) of NC1=N[C@@]2(CO1)c1cc(-c3cccnc3F)ccc1Oc1c2cc(C2=CCOCC2)c(F)c1F : 1.23

Where these numbers come from: patent US8883782B2
